Assay: Sulforhodamine B (SRB) cell viability assay
Assay type: cell-based
Settings: 10 μM, 1 hour, PC12; read-out: cell viability, peptide alone
No end group written: not given here.
ASSAY_METRIC: viability at 10 µM (%)
One number for each entry, in %.

Hey, quick one: what's viability at 10 µM for each of these?
1. AEFHRWSSYMVHWK [T14]
2. KAEFHRWSSYMVHWKNQFDHYSKQDRCSDL [T30, reference compound]

83
68.4
